- System tested: DYRK1A(h) (Homo sapiens)
- Construct: purchased Eurofins Scientific Inc. Korea (contract assay service)
- Run description: In vitro enzymatic assay (Eurofins, radiometric 33P-ATP)
- Format: biochemical
- Conditions: DYRK1A, 10 μM
Consider the following molecules and their measured inhibition at 10 µM readings.
Quantity measured: inhibition at 10 µM (%)

Molecule: COc1ccc(Nc2cc(C)nc(Nc3ccc(OC)cc3)n2)cc1 [Compound 5]
Unit text: %
Op: <
Observed result: 40

Molecule: N#Cc1cccc2sc(C(=O)O)cc12 [Compound 4]
Unit text: %
Op: =
Observed result: 71

Molecule: COC(=O)c1sc2ncnc(Nc3cccc(OC)c3)c2c1C [Compound 2]
Unit text: %
Op: =
Observed result: 58

Molecule: O=C(O)c1cccc(Nc2nc(-c3ccccc3)c3cc(Br)ccc3n2)c1 [Compound 6]
Unit text: %
Op: =
Observed result: 76

Molecule: COc1ccc(Nc2ncc(F)c(N3CCOCC3)n2)cc1 [Compound 7]
Unit text: %
Op: <
Observed result: 40

Molecule: O=C(O)c1cc2cc(Br)ccc2s1 [Compound 3]
Unit text: %
Op: =
Observed result: 82

Molecule: CC(C)c1nn(C)cc1-c1nc2c(N3CCN(Cc4cccnc4)CC3)c(Br)cnc2[nH]1 [Compound 1]
Unit text: %
Op: =
Observed result: 70

Molecule: N#Cc1ccc2[nH]c(O)c(-c3ccc(CN4CCOCC4)cn3)c2c1 [AZD1080, reference compound]
Unit text: %
Op: =
Observed result: 71

----------
Consider the following compounds and their measured IC50 readings.
- System tested: DYRK1A(h) (Homo sapiens)
- Construct: purchased Eurofins Scientific Inc. Korea (contract assay service)
- Run description: In vitro enzymatic assay (Eurofins, radiometric 33P-ATP)
- Assay type: biochemical
- Conditions: as summarised in the discussion; read-out: IC50 values against DYRK1A

Entry smiles: N#Cc1cccc2sc(C(=O)O)cc12
System tested: DYRK1A(h) (Homo sapiens)
IC50: ~3.2 µM
--
Entry smiles: O=C(O)c1cc2cc(Br)ccc2s1
System tested: DYRK1A(h) (Homo sapiens)
IC50: ~3.2 µM

----------
Consider the following compounds and their measured IC50 readings.
- System tested: DYRK1A(h) (Homo sapiens, UniProt Q13627)
- Construct: purchased Eurofins Scientific Inc. Korea (contract assay service)
- Run description: In vitro enzymatic assay (Eurofins, radiometric 33P-ATP)
- Format: biochemical
- Conditions: duplicate, average; read-out: IC50 values against DYRK1A
- Experimental: Enzymatic assays were performed by Eurofins Scientific Inc. Korea (Brussels, Belgium). […] The reaction was initiated by the addition of the MgATP mix. After incubation for 40 min at room temperature, the reaction was stopped by the addition of 3% phosphoric acid solution. Then, 10 μL of the reaction was then spotted onto a P30 filtermat and washed three times for 5 min in 75 mM phosphoric acid and once in methanol prior to drying and scintillation counting. […]

Compound: N#Cc1cccc2sc(C(=O)O)cc12
IC50 / µM: 3.24
//
Compound: O=C(O)c1cc2cc(Br)ccc2s1
IC50 / µM: 3.25
//
Compound: O=C(O)c1cccc(Nc2nc(-c3ccccc3)c3cc(Br)ccc3n2)c1
IC50 / µM: 5.83
//
Compound: COC(=O)c1sc2ncnc(Nc3cccc(OC)c3)c2c1C
IC50 / µM: 5.71
//
Compound: CC(C)c1nn(C)cc1-c1nc2c(N3CCN(Cc4cccnc4)CC3)c(Br)cnc2[nH]1
IC50 / µM: 6.77
//
Compound: N#Cc1ccc2[nH]c(O)c(-c3ccc(CN4CCOCC4)cn3)c2c1 [AZD1080, reference compound]
IC50 / µM: 2.91
